# target: 11β-HSD1 (Homo sapiens)
# Sequence (P28845 whole entry): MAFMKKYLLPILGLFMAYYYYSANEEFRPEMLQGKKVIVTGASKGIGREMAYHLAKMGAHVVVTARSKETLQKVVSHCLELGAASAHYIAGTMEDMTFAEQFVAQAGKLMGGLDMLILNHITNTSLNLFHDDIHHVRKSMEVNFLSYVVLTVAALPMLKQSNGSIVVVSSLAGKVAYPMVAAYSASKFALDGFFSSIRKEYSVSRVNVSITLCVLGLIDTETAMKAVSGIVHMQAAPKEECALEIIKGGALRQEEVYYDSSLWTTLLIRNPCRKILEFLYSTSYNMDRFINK
# protocol: biochemical
# condition context: Biological Test Example 1 IC50 (nM)

| line notation | IC50, nM |
| --- | --- |
| Cc1ccc(-c2ccc([C@H](C)N3CC[C@](CCCO)(c4ccc(F)cc4)OC3=O)cc2)c(C)n1 | 1 |
| C[C@@H](c1ccc(-c2ccncc2)cc1)N1CC[C@](CCC(N)=O)(c2ccccc2)OC1=O | 1 |
| C[C@@H](c1ccc(-c2ccc(C(=O)NC3CC3)nn2)cc1)N1CC[C@](CC(C)(C)C#N)(c2ccccc2)OC1=O | 1 |

====

# target: 11β-HSD1 (Homo sapiens)
# protocol: Biological Test Example 4: microsomal 11β-HSD1 in the presence of 50% human plasma
Reported IC50 is given for each of the following molecules.
endpoint name: IC50

| line notation | reported value |
| --- | --- |
| COc1ccc(-c2ccc([C@H](C)N3CC[C@](CCO)(c4ccccc4)OC3=O)cc2)cn1 | 12.7 nM |
| Cc1cc(-c2ccc([C@H](C)N3CC[C@](CCCO)(c4ccc(F)cc4)OC3=O)cc2)cc(C)[n+]1[O-] | 6.5 nM |
| COc1ccc(-c2ccc([C@H](C)N3CC[C@](CC(C)(C)O)(c4ccc(F)cc4)OC3=O)cc2)cn1 | 6.2 nM |
| C[C@@H](c1ccc(-c2ccc(C(=O)NC3CC3)cn2)cc1)N1CC[C@](CC(C)(C)O)(c2ccccc2)OC1=O | 3.9 nM |

====

# target: 11β-HSD1 (Homo sapiens)
# protocol: Biological Test Example 4: microsomal 11β-HSD1 in the presence of 50% human plasma
pIC50: −log10 of the molar value.
endpoint name: pIC50

| line notation | endpoint name | reported value |
| --- | --- | --- |
| C[C@@H](c1ccc(-c2ccccn2)cc1)N1CC[C@](CCCNS(C)(=O)=O)(c2ccc(F)cc2)OC1=O | pIC50 | 7.87 |
| C[C@@H](c1ccc(-c2cccnn2)cc1)N1CC[C@](CCCO)(c2ccc(F)cc2)OC1=O | pIC50 | 7.72 |
| C[C@@H](c1ccc(-c2ncccc2C#N)cc1)N1CC[C@](CC(C)(C)O)(c2ccccc2)OC1=O | pIC50 | 7.37 |
| C[C@@H](c1ccc(-c2cnc(C#N)cn2)cc1)N1CC[C@](CC(C)(C)O)(c2ccc(F)cc2)OC1=O | pIC50 | 8.04 |
| C[C@@H](c1ccc(-c2ccccn2)cc1)N1CC[C@](CCCNS(C)(=O)=O)(c2ccccc2)OC1=O | pIC50 | 8.21 |
| C[C@@H](c1ccc(-c2ccc(C3CC3)nn2)cc1)N1CC[C@](CC(C)(C)O)(c2ccccc2)OC1=O | pIC50 | 8.40 |
| Cc1cc(-c2ccc([C@H](C)N3CC[C@](CCO)(c4ccccc4)OC3=O)cc2)ccn1 | pIC50 | 8.25 |
| C[C@@H](c1ccc(-c2ccccn2)cc1)N1CC[C@](CC(C)(C)O)(c2ccc(F)cc2)OC1=O | pIC50 | 8.14 |
| C[C@@H](c1ccc(-c2ncccn2)cc1)N1CC[C@](CCCO)(c2ccc(F)cc2)OC1=O | pIC50 | 7.64 |
| Cc1cc(-c2ccc([C@H](C)N3CC[C@](CC4(O)CC4)(c4ccc(F)cc4)OC3=O)cc2)ccn1 | pIC50 | 7.99 |
| C[C@@H](c1ccc(-c2ccc(C(F)(F)F)cn2)cc1)N1CC[C@](CCCO)(c2ccc(F)cc2)OC1=O | pIC50 | 7.50 |
| C[C@@H](c1ccc(-c2cnc(C(C)(C)O)nc2)cc1)N1CC[C@](CC(C)(C)O)(c2ccccc2)OC1=O | pIC50 | 8.03 |
| C[C@@H](c1ccc(-c2ccccn2)cc1)N1CC[C@](CCO)(c2ccccc2)OC1=O | pIC50 | 7.89 |
| C=CC[C@]1(c2ccc(F)cc2)CCN([C@@H](C)c2ccc(-c3cncc(Cl)c3)cc2)C(=O)O1 | pIC50 | 7.40 |
| C[C@@H](c1ccc(-c2cncc(F)c2)cc1)N1CC[C@](CCCO)(c2ccc(F)cc2)OC1=O | pIC50 | 8.32 |
| Cc1cc(-c2ccc([C@H](C)N3CC[C@](CC(C)(C)O)(c4ccc(F)cc4)OC3=O)cc2)cc(C)n1 | pIC50 | 7.92 |
| Cc1cc(-c2ccc([C@H](C)N3CC[C@](CCNS(C)(=O)=O)(c4ccccc4)OC3=O)cc2)ccn1 | pIC50 | 8.09 |
| C[C@@H](c1ccc(-c2cccc(N(C)C)n2)cc1)N1CC[C@](CC(C)(C)O)(c2ccccc2)OC1=O | pIC50 | 7.66 |
| C[C@@H](c1ccc(-c2ccc(C(=O)N(C)C)cn2)cc1)N1CC[C@](CC(C)(C)O)(c2ccccc2)OC1=O | pIC50 | 8.00 |
| Cc1cc(-c2ccc([C@H](C)N3CC[C@](CCCO)(c4ccccc4)OC3=O)cc2)cc(C)[n+]1[O-] | pIC50 | 7.62 |
| C[C@@H](c1ccc(-c2nc(C(=O)NC(C)(C)C)cs2)cc1)N1CC[C@](CC(C)(C)O)(c2ccccc2)OC1=O | pIC50 | 7.74 |
| C[C@@H](c1ccc(-c2ccnc(N)c2)cc1)N1CC[C@](CCCO)(c2ccccc2)OC1=O | pIC50 | 8.17 |
